- Test system: MDCK
- experiment_description: Cytotoxicity in influenza A/PR/8/34 virus infected MDCK cells after 3 days by MTT assay
- Assay type: cell-based, Canis lupus familiaris
- condition_info: dog, 72 h
result_type: Activity

molecule	test_value
COc1cc(O)c2c(=O)cc(-c3ccc(OC)c(-c4c(O[C@]5(C(=O)O)C[C@H](O)[C@@H](NC(C)=O)[C@H]([C@H](O)[C@H](O)CO)O5)cc(O)c5c(=O)cc(-c6ccc(O)cc6)oc45)c3)oc2c1 (stereo in doubt; 8S)	Non-toxic
COc1cc(O)c2c(=O)cc(-c3ccc(OC)c(-c4c(O)cc(O)c5c(=O)cc(-c6ccc(O)cc6)oc45)c3)oc2c1	Toxic
COC(=O)[C@@]1(Oc2cc(O)c3c(=O)cc(-c4ccc(O)cc4)oc3c2-c2cc(-c3cc(=O)c4c(O)cc(OC)cc4o3)ccc2OC)C[C@H](OC(C)=O)[C@@H](NC(C)=O)[C@H]([C@H](OC(C)=O)[C@@H](COC(C)=O)OC(C)=O)O1 (stereo in doubt; 6R)	Non-toxic
COc1cc(O)c2c(=O)cc(-c3ccc(OC)c(-c4c(O[C@]5(C(=O)O)C[C@H](O)[C@@H](NC(C)=O)[C@H]([C@H](O)[C@H](O)CO)O5)cc(O)c5c(=O)cc(-c6ccc(O[C@]7(C(=O)O)C[C@H](O)[C@@H](NC(C)=O)[C@H]([C@H](O)[C@H](O)CO)O7)cc6)oc45)c3)oc2c1 (stereo in doubt; 9S)	Non-toxic
COC(=O)[C@@]1(Oc2ccc(-c3cc(=O)c4c(O)cc(O[C@]5(C(=O)OC)C[C@H](OC(C)=O)[C@@H](NC(C)=O)[C@H]([C@H](OC(C)=O)[C@@H](COC(C)=O)OC(C)=O)O5)c(-c5cc(-c6cc(=O)c7c(O)cc(OC)cc7o6)ccc5OC)c4o3)cc2)C[C@H](OC(C)=O)[C@@H](NC(C)=O)[C@H]([C@H](OC(C)=O)[C@@H](COC(C)=O)OC(C)=O)O1 (stereo in doubt; 7S)	Non-toxic
